target: AChE (EC 3.1.1.7) from electric eel (Electrophorus electricus, UniProt O42275); construct: purchased Sigma-Aldrich C3389; assay: biochemical; conditions: AChE from electric eel; mean ± SEM of three experiments
Sequence (O42275 24-633): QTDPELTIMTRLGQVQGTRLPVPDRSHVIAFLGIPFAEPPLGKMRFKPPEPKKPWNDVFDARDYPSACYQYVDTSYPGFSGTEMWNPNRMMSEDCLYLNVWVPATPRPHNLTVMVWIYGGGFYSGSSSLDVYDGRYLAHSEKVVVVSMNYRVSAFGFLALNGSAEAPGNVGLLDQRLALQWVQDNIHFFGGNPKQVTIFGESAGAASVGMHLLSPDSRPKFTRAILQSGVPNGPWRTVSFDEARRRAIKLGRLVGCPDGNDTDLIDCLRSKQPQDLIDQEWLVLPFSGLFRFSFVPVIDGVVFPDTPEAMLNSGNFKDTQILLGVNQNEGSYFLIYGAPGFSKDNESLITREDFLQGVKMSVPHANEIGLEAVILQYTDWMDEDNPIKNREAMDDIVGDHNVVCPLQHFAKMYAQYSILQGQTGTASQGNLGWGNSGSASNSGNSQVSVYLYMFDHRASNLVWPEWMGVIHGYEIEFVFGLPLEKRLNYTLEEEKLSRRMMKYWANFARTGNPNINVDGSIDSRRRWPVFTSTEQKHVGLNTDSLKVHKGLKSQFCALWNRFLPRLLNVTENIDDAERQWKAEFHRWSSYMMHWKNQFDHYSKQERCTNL
Recorded IC50, one value per entry.
Give just the numeric value; nM need not be written.

O=C(/C=C/c1ccc(Cl)cc1)NCCCCCCNc1c2c(nc3ccccc13)CCCC2 [Compound 27] :: 6.9

# IC50 (molecule: O=C(/C=C/c1ccc(Cl)c([N+](=O)[O-])c1)NCCCCCCNc1c2c(nc3ccccc13)CCCC2 [Compound 20] ) is 6.2

Short answer for O=C(/C=C/c1cccc([N+](=O)[O-])c1)NCCCCCCNc1c2c(nc3ccccc13)CCCC2 [Compound 18] : IC50 was 3.6

Lookup result for O=C(/C=C/c1ccccc1[N+](=O)[O-])NCCCCCCNc1c2c(nc3ccccc13)CCCC2 [Compound 17] ; measured IC50: 17.5

Item: O=C(/C=C/c1cccc(O)c1)NCCCCCCNc1c2c(nc3ccccc13)CCCC2 [Compound 33] | IC50: 6.4

###

target: AChE (EC 3.1.1.7) from electric eel (Electrophorus electricus); construct: purchased Sigma-Aldrich C3389; assay: biochemical; settings: AChE from electric eel; mean ± SEM of three experiments
Reported Metric: IC50

COc1cc(/C=C/C(=O)NCCCCCCNc2c3c(nc4ccccc24)CCCC3)ccc1OCc1ccc(Cl)cc1 [Compound 37] :: 104 nM

Summary: COc1cc(/C=C/C(=O)NCCCCCCNc2c3c(nc4ccccc24)CCCC3)cc(OC)c1OC [Compound 32] , AChE (EC 3.1.1.7) from electric eel (Electrophorus electricus), IC50 = 6.4 nM

Entry COc1ccc(/C=C/C(=O)NCCCCCCNc2c3c(nc4ccccc24)CCCC3)cc1 [Compound 30] , AChE (EC 3.1.1.7) from electric eel (Electrophorus electricus) data, IC50 value: 3.7 nM
